Examples of molecules with documented inhibition follow.
# Test system: Epidermal growth factor receptor (Homo sapiens), P00533 [L861Q]
# Sequence (P00533 whole entry L861Q): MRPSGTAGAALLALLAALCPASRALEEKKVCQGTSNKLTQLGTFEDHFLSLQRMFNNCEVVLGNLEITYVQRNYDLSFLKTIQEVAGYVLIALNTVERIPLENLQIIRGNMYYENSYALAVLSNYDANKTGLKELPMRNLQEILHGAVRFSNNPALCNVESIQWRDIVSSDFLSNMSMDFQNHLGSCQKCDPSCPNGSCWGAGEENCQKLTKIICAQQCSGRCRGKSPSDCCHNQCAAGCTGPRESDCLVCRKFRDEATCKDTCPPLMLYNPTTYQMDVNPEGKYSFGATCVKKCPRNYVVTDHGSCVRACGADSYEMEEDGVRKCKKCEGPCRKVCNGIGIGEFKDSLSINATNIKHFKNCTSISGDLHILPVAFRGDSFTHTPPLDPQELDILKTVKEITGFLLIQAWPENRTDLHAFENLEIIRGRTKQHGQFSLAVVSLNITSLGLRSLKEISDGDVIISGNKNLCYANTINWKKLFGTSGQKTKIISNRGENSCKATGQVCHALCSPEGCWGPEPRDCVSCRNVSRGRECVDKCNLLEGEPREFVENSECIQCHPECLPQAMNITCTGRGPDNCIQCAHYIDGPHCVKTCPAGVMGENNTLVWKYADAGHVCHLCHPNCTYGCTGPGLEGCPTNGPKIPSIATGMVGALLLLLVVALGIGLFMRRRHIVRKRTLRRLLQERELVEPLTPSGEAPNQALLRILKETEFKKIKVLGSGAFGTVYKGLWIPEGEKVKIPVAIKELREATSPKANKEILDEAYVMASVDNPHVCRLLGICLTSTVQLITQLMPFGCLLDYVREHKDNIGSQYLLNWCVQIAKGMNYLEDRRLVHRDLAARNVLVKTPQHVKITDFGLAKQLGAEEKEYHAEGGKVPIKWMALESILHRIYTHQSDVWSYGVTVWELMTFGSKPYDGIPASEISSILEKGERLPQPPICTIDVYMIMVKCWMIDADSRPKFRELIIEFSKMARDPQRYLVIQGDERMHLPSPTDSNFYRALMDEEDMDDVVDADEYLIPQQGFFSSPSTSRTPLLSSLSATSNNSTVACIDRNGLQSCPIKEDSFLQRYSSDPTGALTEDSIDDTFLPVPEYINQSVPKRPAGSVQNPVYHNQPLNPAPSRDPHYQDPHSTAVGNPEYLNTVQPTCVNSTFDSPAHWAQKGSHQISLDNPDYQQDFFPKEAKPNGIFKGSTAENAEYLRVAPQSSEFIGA
# Experimental Conditions: at 1 µM
Quantity Measured: inhibition (%)

# Entry Smiles, Quantity Measured, Experimental Result
measured = [
    ("COc1cc(Nc2nccc(-c3cnn4ncccc34)n2)cc(OC)c1", "inhibition", 3.09),
    ("Nc1nccc(-c2c(-c3ccc(F)cc3)ncn2CCCN2CCOCC2)n1", "inhibition", 10.9),
    ("C[C@@H](Oc1cc(-n2cnc3ccc(OC[C@@H](O)CO)cc32)sc1C(N)=O)c1ccccc1Cl", "inhibition", -2.45),
    ("Cc1nc(-c2ccccc2)n2nc(NCCCN3CCOCC3)ncc12", "inhibition", 1.99),
    ("COC(=O)c1cncc(/C=C/c2c(C)cc(O)cc2C)c1", "inhibition", 7.07),
    ("c1ccc(Nc2ncc(-c3ccccc3)o2)cc1", "inhibition", 4.14),
]
